pKi values recorded for human 5-HT1A receptor subtype (Homo sapiens, UniProt P08908)
Scale: pKi equals -log10([C]), with [C] in mol/L.

molecule	pKi
COc1ccccc1N1CCN([C@H]2CC[C@@H](c3c[nH]c4ccc(F)cc43)CC2)CC1	6.89
Fc1ccc2[nH]cc([C@H]3CC[C@H](N4CCN(c5cccc6[nH]ccc56)CC4)CC3)c2c1	8.34
COc1ccccc1N1CCN(C2CC=C(c3c[nH]c4ccc(F)cc34)CC2)CC1 (centres unmarked)	7.15

Can you share its pKi? I mean this molecule: "c1cc(N2CCN([C@H]3CC[C@@H](c4c[nH]c5ccccc54)CC3)CC2)c2cc[nH]c2c1" 7.49

Also, "Fc1cccc2[nH]cc([C@H]3CC[C@H](N4CCN(c5cccc6[nH]ccc56)CC4)CC3)c12" please. 7.65

Also, COc1ccc(F)cc1N1CCN([C@H]2CC[C@@H](c3c[nH]c4ccc(F)cc43)CC2)CC1 [Example 22a] please. 7.09

Also, N#Cc1ccc2[nH]cc(C3=CCC(N4CCN(c5cccc6[nH]ccc56)CC4)CC3)c2c1 (centres unmarked) please. 7.91

Also, "Fc1ccc2[nH]cc([C@H]3CC[C@@H](N4CCN(c5cccc6[nH]ccc56)CC4)CC3)c2c1" please. 7.44

---

measured.target: human 5-HT1A receptor subtype (5-HT1A.CHO cells) (Homo sapiens, UniProt P08908)
Construct: expressed in transfected cells
measurement.notes: cAMP formation in forskolin-treated cells (cAMP SPA assay)
Type: cell-based
recorded.conditions: value in brackets; forskolin 1 uM
metric: Emax (%)
Numeric only. Scale: %

Answered examples (3):
molecule	metric	readout.value
c1cc(N2CCN([C@H]3CC[C@H](c4c[nH]c5ccccc54)CC3)CC2)c2cc[nH]c2c1	Emax	77
c1cc(N2CCN([C@H]3CC[C@@H](c4c[nH]c5ncccc54)CC3)CC2)c2cc[nH]c2c1 [Example 10a]	Emax	0
Fc1ccc2[nH]cc([C@H]3CC[C@@H](N4CCN(c5cccc6cccnc56)CC4)CC3)c2c1 [Example 27a]	Emax	0

Now look at this entry.
Missing value: Emax, human 5-HT1A receptor subtype (5-HT1A.CHO cells) (Homo sapiens, UniProt P08908), entry "Clc1ccc2[nH]cc([C@H]3CC[C@@H](N4CCN(c5cccc6[nH]ccc56)CC4)CC3)c2c1" . Fill in? 80

---

measured.target: 5-HT1A cloned receptor membrane fragments (Homo sapiens, UniProt P08908)
Construct: expressed in transfected cells
Sequence (P08908 1-422): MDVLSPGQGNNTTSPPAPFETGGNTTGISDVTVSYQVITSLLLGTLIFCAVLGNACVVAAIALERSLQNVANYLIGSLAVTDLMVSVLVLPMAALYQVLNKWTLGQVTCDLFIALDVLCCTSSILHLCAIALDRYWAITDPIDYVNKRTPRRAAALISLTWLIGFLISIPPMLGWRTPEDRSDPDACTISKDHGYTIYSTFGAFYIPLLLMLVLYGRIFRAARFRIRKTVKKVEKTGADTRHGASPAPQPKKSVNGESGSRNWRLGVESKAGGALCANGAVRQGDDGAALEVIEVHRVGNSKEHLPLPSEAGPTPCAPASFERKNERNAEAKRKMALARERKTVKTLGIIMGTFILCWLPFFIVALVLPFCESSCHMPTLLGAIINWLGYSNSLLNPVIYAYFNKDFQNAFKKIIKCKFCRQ
measurement.notes: [35S]-GTPγS binding assay
Type: biochemical
recorded.conditions: read-out: GTPγS (%EMax)
Emax for assorted molecules
Numeric only. Scale: %

Answered examples (2):
molecule	measured.target	result.unit	readout.value
Fc1ccc2[nH]cc([C@H]3CC[C@H](N4CCN(c5cccc6[nH]ccc56)CC4)CC3)c2c1	5-HT1A cloned receptor membrane fragments (Homo sapiens, UniProt P08908)	%	51
N#Cc1ccc2[nH]cc([C@H]3CC[C@@H](N4CCN(c5cccc6cccnc56)CC4)CC3)c2c1 [Example 29a]	5-HT1A cloned receptor membrane fragments (Homo sapiens, UniProt P08908)	%	23

Can you share its Emax? I mean this molecule: "Fc1ccc2[nH]cc([C@H]3CC[C@@H](N4CCN(c5cccc6[nH]ccc56)CC4)CC3)c2c1" 10
